Data origin: the supplement of paper PMC10567573

B1: CDC34 (parent)
chain: GGYFKARLKFPIDYPYSPPAFRFL

Variants of: B1
procedureText: protein stability index of a GFP-peptide fusion (GPS, HEK-293T) (PSI 1-6); higher = more stable;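 also: lentivirally expressed fusions sorted by FACS into six bins by GFP to DsRed ratio, PSI derived from sequencing read proportions per bin multiplied by bin number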
measurementContext: c terminus: a fixed tail appended
parameterMeasured: protein stability index
One number for each entry.

GKYFKARLKFPIDYPYSPPAFRFL [G2K] | 1.9
GGYFKARLDFPIDYPYSPPAFRFL [K9D] | 2.43
GGYFKARLKFPIDYPYSPPAMRFL [F21M] | 2.15
GGYFKARLKCPIDYPYSPPAFRFL [F10C] | 2.89

Hi team, please reply with protein stability index for each item in this list.
1. GGYFKARLKFPIDYPYSPPAFRHL [F23H]
2. GGYFKARLKYPIDYPYSPPAFRFL [F10Y]
3. GGYVKARLKFPIDYPYSPPAFRFL [F4V]

1: 4.27; 2: 2.87; 3: 3.17

Hi team, please reply with protein stability index for each item in this list.
1. GGYFKARLKFPIDYPYYPPAFRFL [S17Y]
2. GGYFKARLKFPIDYPYSPSAFRFL [P19S]
3. GGYFKANLKFPIDYPYSPPAFRFL [R7N]
4. GGYFKARLKFPIDYPISPPAFRFL [Y16I]
5. GGYFKARLKFPIDYPYSAPAFRFL [P18A]
6. GGYFKARLKFPIDYPYSPPAFKFL [R22K]
7. GGYFKARLKFPIDYTYSPPAFRFL [P15T]
8. GGYFKARAKFPIDYPYSPPAFRFL [L8A]

1: 2.44; 2: 2.64; 3: 2.57; 4: 3.09; 5: 2.96; 6: 2.74; 7: 2.51; 8: 2.66

Hi team, please reply with protein stability index for each item in this list.
1. GGYFKARLKFPIDYPYSPPAFREL [F23E]
2. GGYFKARLKFPIDYPYSPPAFRQL [F23Q]
3. GGYFKAWLKFPIDYPYSPPAFRFL [R7W]

[2.19, 1.48, 3.18]

Just so you know, measured protein stability index for GGYFKARLKFPIDYPYSPPAFEFL [R22E] came out at 2.58
